All figures here come from patent US20250136677A1.

tested-system: T1, wildtype feline IL-31 protein (Feline_IL31_wildtype) (feline)
T1 construct: Full length feline IL-31 with C-terminal His tag, secreted from ExpiCHO cells; also called fIL-31
T1 chain: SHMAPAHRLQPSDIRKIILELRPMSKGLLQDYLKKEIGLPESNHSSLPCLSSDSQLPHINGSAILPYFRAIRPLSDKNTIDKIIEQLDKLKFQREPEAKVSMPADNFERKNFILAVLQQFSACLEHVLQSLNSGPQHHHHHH
protocol-description: SPR (Biacore), IL-31 on chip, 1:1 fit

binder: Feline 15H05 1.1 FW1_2 (antibody, V domains shown) VH: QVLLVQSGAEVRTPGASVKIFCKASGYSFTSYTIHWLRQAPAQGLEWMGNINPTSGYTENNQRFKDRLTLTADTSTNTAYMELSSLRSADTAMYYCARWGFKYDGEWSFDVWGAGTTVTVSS VL: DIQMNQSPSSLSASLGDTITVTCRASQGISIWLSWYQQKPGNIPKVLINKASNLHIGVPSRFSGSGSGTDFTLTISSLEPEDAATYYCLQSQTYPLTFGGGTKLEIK
koff: 6.7e-06 s⁻¹

binder: Feline 15H05 1.1 FW2_3 (antibody, V domains shown) VH: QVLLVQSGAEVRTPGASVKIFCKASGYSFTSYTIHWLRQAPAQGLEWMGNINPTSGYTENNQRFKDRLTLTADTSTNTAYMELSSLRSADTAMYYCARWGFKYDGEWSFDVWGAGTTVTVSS VL: EIQMTQSPSSLSASPGDRVTITCRASQGISIWLSWYQQKPGNIPKVLINKASNLHIGVPPRFSGSGSGTHFTLTITSLQPEDIATYYCLQSQTYPLTFGGGTKLEIK
koff: 0.00116 s⁻¹

binder: Feline 11E12 1.1 (antibody, V domains shown, Variable chains were subcloned into plasmids with 'the respective feline heavy or kappa constant region'; Made in HEK 293 cells; also called Felinized 11E12 1.1; felinized 11E12) VH: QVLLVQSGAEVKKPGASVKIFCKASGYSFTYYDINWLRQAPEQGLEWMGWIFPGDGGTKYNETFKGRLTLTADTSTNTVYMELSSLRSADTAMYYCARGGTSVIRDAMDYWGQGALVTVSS VL: EIQMTQSPSSLSASPGDRVTITCRASESVDNYGISFMHWYQQKPGKVPKLLIYRASNLESGVPSRFSGSGSGTDFTLTISSLEPEDAATYYCQQSNKDPLTFGQGT
koff: 0.000444 s⁻¹
